All values here come from patent US20230099344A1.

# MEASUREMENT_TARGET: IRAK-4 (Homo sapiens, UniProt Q9NWZ3)
# Sequence (Q9NWZ3 whole entry): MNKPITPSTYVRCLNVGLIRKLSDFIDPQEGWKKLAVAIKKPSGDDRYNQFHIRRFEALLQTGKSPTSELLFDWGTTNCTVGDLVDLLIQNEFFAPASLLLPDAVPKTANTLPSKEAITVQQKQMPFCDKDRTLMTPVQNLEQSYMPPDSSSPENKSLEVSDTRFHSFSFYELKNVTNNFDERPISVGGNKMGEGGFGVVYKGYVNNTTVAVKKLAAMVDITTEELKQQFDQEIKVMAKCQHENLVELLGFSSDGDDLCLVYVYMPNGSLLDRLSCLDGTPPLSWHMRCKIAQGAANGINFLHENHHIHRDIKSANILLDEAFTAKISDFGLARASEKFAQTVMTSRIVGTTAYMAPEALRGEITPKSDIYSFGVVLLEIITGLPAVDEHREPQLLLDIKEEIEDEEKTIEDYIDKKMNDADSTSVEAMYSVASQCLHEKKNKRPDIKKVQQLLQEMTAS
# TEST_DESCRIPTION: IRAK-4 ELISA, PBMC degradation
# Assay type: cell-based
# Set-up: endogenous in cells; host or cells: PBMC
# ASSAY_CONDITIONS: treated overnight
# Method: Reagents: Human IRAK-4 Matched Antibody Pair Kit (Abcam ab218182) and ELISA Accessory Pack (Abcam ab210905). Cell Treatment and Lysis: 1. OCI-Ly10: 200,000 cells are seeded at 1×10^6/ml in 96-well U-bottom plates 200 ul per well, treated with compound the same day. Incubate overnight. 2. PBMC: 800,000 cells are seeded at 2×10^6/ml in 96-well U-bottom deep-well plates, 400 ul per well, treated with compound the same day. […] Cell lysate is collected and analyzed by ELISA for IRAK-4 levels.
Dmax listing for selected compounds.
OBSERVABLE: Dmax

[[record]]
compound = "CC(C)Oc1cc2c(cc1NC(=O)c1cnn3cccnc13)CN(C1CCN(CC3CN(c4ccc5c(c4)C(=O)N(C4CCC(=O)NC4=O)C5=O)C3)CC1)C2=O (centres unmarked)"
measurement_target = "IRAK-4 (Homo sapiens, UniProt Q9NWZ3)"
result = "80 to 90%"

[[record]]
compound = "CN1CC(Oc2cc3c(cc2NC(=O)c2cnn4cccnc24)CN(C2CCN(CC4CN(c5ccc6c(c5)C(=O)N(C5CCC(=O)NC5=O)C6=O)C4)CC2)C3=O)C1 (centres unmarked)"
measurement_target = "IRAK-4 (Homo sapiens, UniProt Q9NWZ3)"
result = "80 to 90%"

[[record]]
compound = "O=C1CCC(N2C(=O)c3ccc(N4CCC(O)(CN5CCC(n6cc7cc(NC(=O)c8cnn9cccnc89)c(OCC8CC8)cc7n6)CC5)CC4)cc3C2=O)C(=O)N1 (centres unmarked)"
measurement_target = "IRAK-4 (Homo sapiens, UniProt Q9NWZ3)"
result = "≥ 90%"

[[record]]
compound = "COc1cc2nn(C3CCN(CC4(F)CN(c5ccc6c(c5)C(=O)N(C5CCC(=O)NC5=O)C6=O)C4)CC3)cc2cc1NC(=O)c1cnn2ccc(N3CCOCC3)nc12 (centres unmarked)"
measurement_target = "IRAK-4 (Homo sapiens, UniProt Q9NWZ3)"
result = "70 to 80%"

[[record]]
compound = "CC(C)Oc1cc2nn(C3CCN(CC4(F)CN(c5cc6c(cn5)C(=O)N(C5CCC(=O)NC5=O)C6=O)C4)CC3)cc2cc1NC(=O)c1cnn2cccnc12 (centres unmarked)"
measurement_target = "IRAK-4 (Homo sapiens, UniProt Q9NWZ3)"
result = "70 to 80%"

[[record]]
compound = "CC(C)Oc1cc2c(cc1NC(=O)c1cnn3cccnc13)CN(C1CCN(C[C@@H]3CN(c4ccc5c(c4)C(=O)N(C4CCC(=O)NC4=O)C5=O)CCO3)CC1)C2=O (some centres unmarked)"
measurement_target = "IRAK-4 (Homo sapiens, UniProt Q9NWZ3)"
result = "≥ 90%"

[[record]]
compound = "CC(C)Oc1cc2c(cc1NC(=O)c1cnn3cccnc13)CN(C1CCN(CC3(F)CN(c4ccc5c(c4)C(=O)N(C4CCC(=O)NC4=O)C5)C3)CC1)C2=O (centres unmarked)"
measurement_target = "IRAK-4 (Homo sapiens, UniProt Q9NWZ3)"
result = "≥ 90%"

[[record]]
compound = "CC(C)Oc1cc2c(cc1NC(=O)c1cnn3cccnc13)CN(CCOCC1CCN(c3ccc4c(c3)C(=O)N(C3CCC(=O)NC3=O)C4=O)CC1)C2=O (centres unmarked)"
measurement_target = "IRAK-4 (Homo sapiens, UniProt Q9NWZ3)"
result = "≥ 90%"

[[record]]
compound = "Cn1c(=O)n(C2CCC(=O)NC2=O)c2cccc(N3CC(CN4CCC(n5cc6cc(NC(=O)c7cnn8cccnc78)c(C7CC7)cc6n5)CC4)C3)c21 (centres unmarked)"
measurement_target = "IRAK-4 (Homo sapiens, UniProt Q9NWZ3)"
result = "≥ 90%"

[[record]]
compound = "CC(C)Oc1cc2c(cc1NC(=O)c1cnn3cccnc13)CN([C@H]1CC[C@H](OC3CCN(c4ccc5c(c4)C(=O)N(C4CCC(=O)NC4=O)C5=O)CC3)CC1)C2=O (some centres unmarked)"
measurement_target = "IRAK-4 (Homo sapiens, UniProt Q9NWZ3)"
result = "≥ 90%"

[[record]]
compound = "CC(C)Oc1nc2c(cc1NC(=O)c1cnn3cccnc13)CN(C1CCN(CC3CCN(c4ccc5c(c4)C(=O)N(C4CCC(=O)NC4=O)C5=O)CC3)CC1)C2=O (centres unmarked)"
measurement_target = "IRAK-4 (Homo sapiens, UniProt Q9NWZ3)"
result = "≥ 90%"


====

pIC50 listing for selected compounds.
# System: IL6
# TEST_DESCRIPTION: R848 stimulated IL6 inhibition assay in PBMC
# Type: cell-based
# ASSAY_CONDITIONS: PBMC; human PBMCs, R848 stimulation, compound overnight, IL6 by MSD after 24 hrs; read-out: R848 stim IL6 inhibition IC50
pIC50: −log10 of the molar value.
OBSERVABLE: pIC50

[[record]]
compound = "CN(C1CN(c2ccc3c(c2)CN(C2CCC(=O)NC2=O)C3=O)C1)[C@H]1CC[C@H](N2Cc3cc(NC(=O)c4cnn5cccnc45)c(N4CCC(N5CCC5)CC4)cc3C2=O)CC1 (stereo partly drawn)"
result = "> 8.00"

[[record]]
compound = "O=C1CCC(N2C(=O)c3ccc(N4CCC(CN5CCC(n6cc7cc(NC(=O)c8cnn9cc(Cl)cnc89)c(OCC8CC8)cc7n6)CC5)CC4)cc3C2=O)C(=O)N1 (stereo not drawn)"
result = "7.30 to 8.00"

[[record]]
compound = "CC1(CN2CCC(n3cc4cc(NC(=O)c5cnn6cccnc56)c(OCC5CC5)cc4n3)CC2)CN(c2cc3c(cc2F)C(=O)N(C2CCC(=O)NC2=O)C3=O)C1 (stereo not drawn)"
result = "7.00 to 7.30"

[[record]]
compound = "O=C1CCC(N2C(=O)c3ccc(N4CC5(C4)CN([C@H]4CC[C@H](n6cc7cc(NC(=O)c8cnn9cccnc89)c(OCC8CC8)cc7n6)CC4)C5)cc3C2=O)C(=O)N1 (stereo partly drawn)"
result = "> 8.00"

[[record]]
compound = "CN(C1CN(c2ccc3c(c2F)CN(C2CCC(=O)NC2=O)C3=O)C1)[C@H]1CC[C@H](n2cc3cc(NC(=O)c4cnn5cccnc45)c(OCC(F)F)cc3n2)CC1 (stereo partly drawn)"
result = "> 8.00"

[[record]]
compound = "CN([C@H]1CC[C@H](n2cc3cc(NC(=O)c4cnn5cccnc45)c(OCC4CC4)cc3n2)CC1)[C@H]1C[C@H](Oc2ccc3c(c2)C(=O)N(C2CCC(=O)NC2=O)C3=O)C1 (stereo partly drawn)"
result = "7.30 to 8.00"

[[record]]
compound = "CC(C)(C1CN(c2ccc3c(c2)C(=O)N(C2CCC(=O)NC2=O)C3=O)C1)N1CCC(n2cc3cc(NC(=O)c4cnn5cccnc45)c(OCC4CC4)cc3n2)CC1 (stereo not drawn)"
result = "7.30 to 8.00"

[[record]]
compound = "O=C1CC[C@H](N2C(=O)c3ccc(N4CC(F)(CN5CCC(n6cc7cc(NC(=O)c8cnn9cccnc89)c(OCC8CC8)cc7n6)CC5)C4)cc3C2=O)C(=O)N1"
result = "7.30 to 8.00"

[[record]]
compound = "O=C1CC[C@@H](N2C(=O)c3ccc(N4CC(F)(CN5CCC(n6cc7cc(NC(=O)c8cnn9cccnc89)c(OCC8CC8)cc7n6)CC5)C4)cc3C2=O)C(=O)N1"
result = "7.30 to 8.00"

[[record]]
compound = "CC(C)Oc1cc2c(cc1NC(=O)c1cnn3cccnc13)CN(C1CCN(C(C)(C)C3CN(c4ccc5c(c4)C(=O)N(C4CCC(=O)NC4=O)C5=O)C3)CC1)C2=O (stereo not drawn)"
result = "7.30 to 8.00"

[[record]]
compound = "CC(C)Oc1cc2c(cc1NC(=O)c1cnn3cccnc13)CN(C1CCN(C(C)(C)C3CN(c4ccc(F)c(C(=O)NC5CCC(=O)NC5=O)c4)C3)CC1)C2=O (stereo not drawn)"
result = "7.30 to 8.00"

[[record]]
compound = "CN(C1CN(c2ccc(C(=O)NC3CCC(=O)NC3=O)c(F)c2)C1)[C@H]1CC[C@H](n2cc3cc(NC(=O)c4cnn5cccnc45)c(OCC4CC4)cc3n2)CC1 (stereo partly drawn)"
result = "7.30 to 8.00"


====

IC50 listing for selected compounds.
# Test system: IL6
# TEST_DESCRIPTION: R848 stimulated IL6 inhibition assay in PBMC
# Assay type: cell-based
# ASSAY_CONDITIONS: PBMC; human PBMCs, R848 stimulation, compound overnight, IL6 by MSD after 24 hrs; read-out: R848 stim IL6 inhibition IC50
OBSERVABLE: IC50

[[record]]
compound = "O=C1CCC(N2Cc3cc(N4CC(O[C@H]5CC[C@H](n6cc7cc(NC(=O)c8cnn9cccnc89)c(OCC8CC8)cc7n6)CC5)C4)ccc3C2=O)C(=O)N1 (some centres unmarked) [Example 423]"
observable = "IC50"
result = "10 to 50 nM"

[[record]]
compound = "O=C1CCC(N2C(=O)c3ccc(N4CC(F)(CN5CCC(N6Cc7cc(NC(=O)c8cnn9cccnc89)c(N8CCC(N9CCC9)CC8)cc7C6=O)CC5)C4)cc3C2=O)C(=O)N1 (centres unmarked) [Example 116]"
observable = "IC50"
result = "< 10 nM"

[[record]]
compound = "O=C1CCC(N2Cc3cc(N4CC(F)(CN5CCC(N6Cc7cc(NC(=O)c8cnn9cccnc89)c(N8CCC(N9CCC9)CC8)cc7C6=O)CC5)C4)ccc3C2=O)C(=O)N1 (centres unmarked) [Example 117]"
observable = "IC50"
result = "10 to 50 nM"

[[record]]
compound = "O=C1CCC(N2C(=O)c3ccc(N4CCC5(CC4)CN(CCN4CCC(n6cc7cc(NC(=O)c8cnn9cccnc89)c(OCC8CC8)cc7n6)CC4)C5)cc3C2=O)C(=O)N1 (centres unmarked) [Example 249]"
observable = "IC50"
result = "10 to 50 nM"

[[record]]
compound = "O=C1CCC(N2C(=O)c3ccc(N4CCC(CN5CCC(N6Cc7cc(NC(=O)c8cnn9cccnc89)c(OCC(F)F)cc7C6=O)CC5)CC4)cc3C2=O)C(=O)N1 (centres unmarked) [Example 42]"
observable = "IC50"
result = "< 10 nM"

[[record]]
compound = "O=C1CCC(N2Cc3c(ccc(N4CCC(CN5CCC(n6cc7cc(NC(=O)c8cnn9cccnc89)c(N8CCN(CC(F)F)CC8)cc7n6)CC5)CC4)c3F)C2=O)C(=O)N1 (centres unmarked) [Example 158]"
observable = "IC50"
result = "< 10 nM"

[[record]]
compound = "CC(C)Oc1cc2c(cc1NC(=O)c1cnn3cccnc13)CN(C1CCN(CC3(O)CCN(c4ccc5c(c4)C(=O)N(C4CCC(=O)NC4=O)C5=O)CC3)CC1)C2=O (centres unmarked) [Example 109]"
observable = "IC50"
result = "10 to 50 nM"

[[record]]
compound = "CCN([C@H]1CC[C@H](n2cc3cc(NC(=O)c4cnn5cccnc45)c(OCC4CC4)cc3n2)CC1)[C@H]1C[C@H](Oc2ccc3c(c2)C(=O)N(C2CCC(=O)NC2=O)C3=O)C1 (some centres unmarked) [Example 373]"
observable = "IC50"
result = "10 to 50 nM"

